FYI, the data here is from ChEMBL document CHEMBL1961873.

Quick reference: inhibition of the listed items.
# TARGET ENTITY: Vascular endothelial growth factor receptor 2 (Homo sapiens) (UniProt P35968)
# Sequence (P35968 whole entry): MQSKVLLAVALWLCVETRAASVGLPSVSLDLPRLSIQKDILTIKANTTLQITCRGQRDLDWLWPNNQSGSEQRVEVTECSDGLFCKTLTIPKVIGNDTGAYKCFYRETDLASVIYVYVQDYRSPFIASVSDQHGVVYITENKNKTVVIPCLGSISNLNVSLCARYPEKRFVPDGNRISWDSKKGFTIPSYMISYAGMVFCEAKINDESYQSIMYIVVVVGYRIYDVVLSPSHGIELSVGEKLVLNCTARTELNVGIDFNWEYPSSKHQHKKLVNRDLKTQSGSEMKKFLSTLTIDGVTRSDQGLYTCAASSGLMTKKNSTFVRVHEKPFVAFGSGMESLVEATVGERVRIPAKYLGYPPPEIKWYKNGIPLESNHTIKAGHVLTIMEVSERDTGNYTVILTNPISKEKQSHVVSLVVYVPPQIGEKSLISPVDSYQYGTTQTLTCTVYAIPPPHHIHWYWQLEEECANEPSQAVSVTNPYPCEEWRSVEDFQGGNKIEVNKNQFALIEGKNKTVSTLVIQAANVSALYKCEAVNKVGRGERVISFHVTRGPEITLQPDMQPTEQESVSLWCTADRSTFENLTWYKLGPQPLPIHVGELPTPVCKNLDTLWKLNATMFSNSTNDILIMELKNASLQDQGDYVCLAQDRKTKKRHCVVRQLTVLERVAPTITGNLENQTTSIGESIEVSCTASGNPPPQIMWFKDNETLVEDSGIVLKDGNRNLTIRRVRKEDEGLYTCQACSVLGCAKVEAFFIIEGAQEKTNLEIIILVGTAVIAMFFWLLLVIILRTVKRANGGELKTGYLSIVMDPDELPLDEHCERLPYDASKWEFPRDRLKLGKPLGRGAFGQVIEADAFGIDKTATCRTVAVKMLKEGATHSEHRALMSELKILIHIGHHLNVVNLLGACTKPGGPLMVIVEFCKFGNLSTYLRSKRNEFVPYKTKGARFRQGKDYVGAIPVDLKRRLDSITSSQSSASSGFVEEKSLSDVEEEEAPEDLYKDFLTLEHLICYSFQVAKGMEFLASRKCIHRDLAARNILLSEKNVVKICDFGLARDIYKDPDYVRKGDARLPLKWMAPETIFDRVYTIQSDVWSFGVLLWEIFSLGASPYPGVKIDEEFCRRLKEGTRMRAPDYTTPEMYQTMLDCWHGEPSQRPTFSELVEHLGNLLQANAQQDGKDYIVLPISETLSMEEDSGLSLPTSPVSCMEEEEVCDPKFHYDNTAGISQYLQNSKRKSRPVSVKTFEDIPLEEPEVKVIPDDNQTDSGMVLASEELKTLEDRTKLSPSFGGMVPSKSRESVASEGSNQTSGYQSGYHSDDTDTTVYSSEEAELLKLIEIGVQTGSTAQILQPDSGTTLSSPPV
# STATED CONDITIONS: at 0.1 µM
# Description: GSK_PKIS: KDR mean inhibition at 0.1 uM [Nanosyn]
Just the number in %, nothing appended.

Example cases with answers are listed next.
[
  {
    "SMILES": "Fc1ccc(-c2nn3ccccc3c2-c2ccncc2)cc1",
    "inhibition [%]": 3.84
  },
  {
    "SMILES": "CCn1c(-c2nonc2N)nc2ccccc21",
    "inhibition [%]": 3.69
  },
  {
    "SMILES": "CNC(=O)c1cccc(C#Cc2cncnc2Nc2ccc(OCc3cccc(F)c3)c(Cl)c2)c1",
    "inhibition [%]": 1.34
  },
  {
    "SMILES": "N#Cc1c(NC(=O)c2ccc(F)cc2)sc2c1CCCC2",
    "inhibition [%]": 4.31
  }
]

Query compound follows.
I'd like to know its inhibition. The compound in question is c1ccc(COc2ccc(Nc3ncnc4ccc(-c5ccco5)cc34)cc2)cc1 0.23

* * *

# TARGET ENTITY: Interleukin-1 receptor-associated kinase 4 (Homo sapiens);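 also: mean inhibition values, from the GSK PKIS dataset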
# STATED CONDITIONS: at 1 µM
MEASURED ATTRIBUTE: inhibition (%)
Report as a plain number; the unit % is understood.

Would you please look over these solved cases?
[
  {
    "SMILES": "COc1ccc(-c2cc3c(N)ncnc3o2)cc1",
    "MEASURED ATTRIBUTE": "inhibition",
    "REPORTED RESULT": 0.08
  },
  {
    "SMILES": "Clc1ccc(-c2nn3ncccc3c2-c2ccnc(Nc3ccccc3)n2)cc1",
    "MEASURED ATTRIBUTE": "inhibition",
    "REPORTED RESULT": 1.51
  },
  {
    "SMILES": "CCn1cc(-c2ccnc3[nH]ccc23)c(-c2cccc(NC(=O)Nc3ccc(OCc4ccccc4)cc3)c2)n1",
    "MEASURED ATTRIBUTE": "inhibition",
    "REPORTED RESULT": -0.44
  },
  {
    "SMILES": "FC(F)(F)c1cccc(-c2nn3ncccc3c2-c2ccnc(Nc3ccc4c(c3)OCCO4)n2)c1",
    "MEASURED ATTRIBUTE": "inhibition",
    "REPORTED RESULT": 0.32
  },
  {
    "SMILES": "Cc1cccc(Nc2ncc(-c3ccccc3)o2)c1",
    "MEASURED ATTRIBUTE": "inhibition",
    "REPORTED RESULT": 1.27
  }
]

Here's the next entry for you.
Lookup: inhibition / Interleukin-1 receptor-associated kinase 4 (Homo sapiens) / COc1cccc(-n2ncc3c(N/N=C/c4ccc(F)cc4)ncnc32)c1 1.4

* * *

# TARGET ENTITY: Protein-tyrosine kinase 6 (Homo sapiens)
# STATED CONDITIONS: at 0.1 µM
# Description: GSK_PKIS: BRK mean inhibition at 0.1 uM [Nanosyn]
Record condition met whenever inhibition is at 3% or higher; record condition not met when lower.

[
  {
    "COMPOUND": "CCn1c(-c2nonc2N)nc2c(C#CC(C)(C)O)nc(OC[C@H](N)c3ccccc3)cc21",
    "TARGET ENTITY": "Protein-tyrosine kinase 6 (Homo sapiens)",
    "CATEGORY": "condition not met"
  },
  {
    "COMPOUND": "CC1=C(C(=O)Nc2cc(Cl)c3[nH]ncc3c2)C(c2ccc(C(F)(F)F)cc2)CC(=O)N1 (stereo not given)",
    "TARGET ENTITY": "Protein-tyrosine kinase 6 (Homo sapiens)",
    "CATEGORY": "condition met"
  },
  {
    "COMPOUND": "CCNC(=O)O[C@H]1CN[C@H](C#Cc2cc3ncnc(Nc4ccc(OCc5cccc(F)c5)c(Cl)c4)c3s2)C1",
    "TARGET ENTITY": "Protein-tyrosine kinase 6 (Homo sapiens)",
    "CATEGORY": "condition met"
  },
  {
    "COMPOUND": "NS(=O)(=O)c1ccc(N/N=C2\\C(=O)Nc3ccc4ncccc4c32)cc1",
    "TARGET ENTITY": "Protein-tyrosine kinase 6 (Homo sapiens)",
    "CATEGORY": "condition met"
  }
]

Attention now shifts to the item below.
Assess whether reported inhibition for Fc1ccc(-c2cc(-c3c[nH]nc3-c3ccccn3)ccn2)cc1 sits at 3% or higher. condition met

* * *

# TARGET ENTITY: Vascular endothelial growth factor receptor 2 (Homo sapiens) (UniProt P35968)
# STATED CONDITIONS: at 1 µM
// classify(record): look up inhibition in ranges class 0 = under 7%, class 1 = from 7% up to 50%, class 2 = 50% and over

[
  {
    "SMILES": "CCn1c(-c2nonc2N)nc2ccccc21",
    "CATEGORY": "class 0"
  },
  {
    "SMILES": "CCOc1ccc2c(-c3ccnc(Nc4cccc(C(F)(F)F)c4)n3)cnn2n1",
    "CATEGORY": "class 1"
  },
  {
    "SMILES": "c1cc(-c2cnn3nc(N4CCOCC4)ccc23)nc(NC2CC2)n1",
    "CATEGORY": "class 1"
  }
]

# classify by inhibition band: COc1ccc(CNC(=O)c2ccc(-c3cc(-c4nnc(C)o4)ccc3C)cc2)cc1 class 1

And the next one, CS(=O)(=O)CCNCc1ccc(-c2ccc3ncnc(Nc4ccc(OCc5ccccc5)c(C(F)(F)F)c4)c3c2)o1 ? class 0

Query NS(=O)(=O)c1ccc(N/N=C2\C(=O)Nc3ccc4ncccc4c32)cc1 next class 2

Please give the result for COc1cc(Nc2nccc(Nc3ccc4c(C)n[nH]c4c3)n2)cc(OC)c1OC too. class 2

Same question for CNC(=O)c1cc(-c2ccc(F)cc2)cc(-c2ccc(S(=O)(=O)N3CCCC3)cc2)c1N please. class 0

Try N#Cc1c(NC(=O)CN2CCOCC2)sc2c1CCCC2 next. class 0

Let us now turn to CC(C)COC(=O)c1ccc2c(c1)/C(=C/Nc1ccc(S(N)(=O)=O)cc1)C(=O)N2 class 2

Can you handle COc1ccc2[nH]c3c4[nH]c5ccc(OC)cc5c4c4c(c3c2c1)C(=O)NC4=O next? class 2

* * *

# TARGET ENTITY: RAF proto-oncogene serine/threonine-protein kinase (Homo sapiens) (UniProt P04049);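 also: values are mean CRAF kinase inhibition from profiling of the GSK Published Kinase Inhibitor Set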
# Sequence (P04049 whole entry): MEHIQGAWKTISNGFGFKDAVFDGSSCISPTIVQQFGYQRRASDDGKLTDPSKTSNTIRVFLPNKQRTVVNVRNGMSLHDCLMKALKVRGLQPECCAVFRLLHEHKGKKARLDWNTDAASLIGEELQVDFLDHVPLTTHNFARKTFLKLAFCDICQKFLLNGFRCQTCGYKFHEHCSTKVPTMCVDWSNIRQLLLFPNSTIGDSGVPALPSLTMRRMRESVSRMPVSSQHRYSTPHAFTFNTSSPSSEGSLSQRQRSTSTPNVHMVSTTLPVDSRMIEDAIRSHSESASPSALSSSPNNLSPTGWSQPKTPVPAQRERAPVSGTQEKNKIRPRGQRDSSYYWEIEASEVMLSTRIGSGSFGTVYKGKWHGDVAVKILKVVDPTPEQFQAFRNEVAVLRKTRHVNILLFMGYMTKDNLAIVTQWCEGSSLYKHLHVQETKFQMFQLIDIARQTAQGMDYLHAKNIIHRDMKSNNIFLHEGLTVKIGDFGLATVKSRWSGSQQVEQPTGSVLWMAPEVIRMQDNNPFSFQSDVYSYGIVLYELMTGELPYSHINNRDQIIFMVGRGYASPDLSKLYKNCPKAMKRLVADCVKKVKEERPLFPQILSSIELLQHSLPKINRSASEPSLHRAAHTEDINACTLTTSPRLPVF
# STATED CONDITIONS: at 0.1 µM
Reported inhibition by item:
Param answer (str): number followed by unit.

Reference set, count: 4
[
  {
    "SMILES": "COC(=O)Nc1nc2ccc(Oc3ccc(NC(=O)Nc4cccc(Cl)c4)cc3)cc2[nH]1",
    "inhibition": "-4.01%"
  },
  {
    "SMILES": "CCn1c(-c2nonc2N)nc2ccccc21",
    "inhibition": "2.9%"
  },
  {
    "SMILES": "Fc1cccc(COc2ccc(Nc3ncnc4sc(-c5ccco5)cc34)cc2Cl)c1",
    "inhibition": "-0.33%"
  },
  {
    "SMILES": "CC(C)COC(=O)c1ccc2c(c1)/C(=C/Nc1ccc(S(N)(=O)=O)cc1)C(=O)N2",
    "inhibition": "-3.89%"
  }
]

Okay, next one:
Any idea what inhibition was measured for CC(C)(CO)CNC(=O)c1ccc2c(c1)/C(=N/Nc1ccc(S(N)(=O)=O)cc1)C(=O)N2 ? -0.32%

* * *

# TARGET ENTITY: NT-3 growth factor receptor (Homo sapiens) (UniProt Q16288);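 also: mean TRKC inhibition from the GSK PKIS kinase inhibitor set, with assays run by Nanosyn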
# Sequence (Q16288 32-839 limits assumed): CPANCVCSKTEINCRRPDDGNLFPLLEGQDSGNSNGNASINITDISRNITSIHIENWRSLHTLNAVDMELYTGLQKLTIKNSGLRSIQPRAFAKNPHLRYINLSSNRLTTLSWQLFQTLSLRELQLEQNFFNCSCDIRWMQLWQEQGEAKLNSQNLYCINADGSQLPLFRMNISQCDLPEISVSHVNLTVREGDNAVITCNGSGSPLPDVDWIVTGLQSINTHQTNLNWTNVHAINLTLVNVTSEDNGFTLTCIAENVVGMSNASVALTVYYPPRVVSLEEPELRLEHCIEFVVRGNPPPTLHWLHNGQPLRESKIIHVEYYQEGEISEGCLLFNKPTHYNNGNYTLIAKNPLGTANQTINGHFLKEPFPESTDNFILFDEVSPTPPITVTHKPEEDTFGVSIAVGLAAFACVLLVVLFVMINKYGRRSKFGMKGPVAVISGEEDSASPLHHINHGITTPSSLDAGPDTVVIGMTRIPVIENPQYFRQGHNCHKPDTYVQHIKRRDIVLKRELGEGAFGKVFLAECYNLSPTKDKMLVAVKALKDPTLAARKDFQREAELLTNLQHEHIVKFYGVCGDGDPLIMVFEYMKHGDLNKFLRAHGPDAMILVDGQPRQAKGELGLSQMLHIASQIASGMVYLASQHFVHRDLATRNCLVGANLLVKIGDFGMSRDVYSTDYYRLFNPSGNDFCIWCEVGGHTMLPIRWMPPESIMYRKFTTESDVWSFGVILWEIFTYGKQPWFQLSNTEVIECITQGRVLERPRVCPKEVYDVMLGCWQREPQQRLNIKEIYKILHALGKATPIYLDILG
# STATED CONDITIONS: at 1 µM
Consider the following molecules and their measured inhibition readings.
The reply should contain only the number, in %.

Field: example entries. Status: answers known.
[
  {
    "SMILES": "Fc1cccc(COc2ccc(Nc3ncnc4sc(-c5ccco5)cc34)cc2Cl)c1",
    "TARGET ENTITY": "NT-3 growth factor receptor (Homo sapiens) (UniProt Q16288)",
    "REPORTED RESULT": 3.88
  },
  {
    "SMILES": "COC(=O)Nc1nc2ccc(S(=O)(=O)c3ccc(NC(=O)Nc4cc(C(F)(F)F)ccc4F)cc3)cc2[nH]1",
    "TARGET ENTITY": "NT-3 growth factor receptor (Homo sapiens) (UniProt Q16288)",
    "REPORTED RESULT": 3.91
  }
]

Any idea what inhibition was measured for CCCN1CCC(c2ccc(Nc3nc(Nc4cc(F)ccc4C(N)=O)c4cc[nH]c4n3)c(OC)c2)CC1 ? 7.22

Same again, this time with CN(C)CCOc1ccc(-c2nc(-c3ccncc3)c(-c3ccc4c(c3)CC/C4=N\O)[nH]2)cc1 2.87

Now the same for O=S(=O)(CCNCc1ccc(-c2ccc3ncnc(Nc4ccc(OCc5cccc(F)c5)c(Cl)c4)c3c2)o1)c1ccccc1 5.45

Another molecule to look at: O=C(O[C@H]1CN[C@H](C#Cc2cc3ncnc(Nc4ccc(Cc5ccccc5)cc4)c3s2)C1)N1CCOCC1 -1.7

Now the same for COc1cc(/C=N/Nc2ncnc3[nH]ncc23)ccc1O 11.2

Follow-up entry: CC(=O)NCc1cccc(C#Cc2cncnc2Nc2ccc(OCc3cccc(F)c3)c(Cl)c2)c1 4.11

Now consider COc1cc(N2CCN(C(C)C)CC2)ccc1Nc1nc(Nc2ccc(F)cc2C(N)=O)c2cc[nH]c2n1 . -0.43
